Would you kindly list % Neutralization for each of these binders?
# system: hemagglutinin (HA) of influenza A/Solomon Islands/3/06 H1N1 (Influenza A virus A/Solomon …)
# protocol: cell-based or functional assay
Dear colleague, please send the value followed by its unit.

# example entries with known answers
binder	% Neutralization
TCN-527 (5086_C06) (antibody, V domains shown) VH: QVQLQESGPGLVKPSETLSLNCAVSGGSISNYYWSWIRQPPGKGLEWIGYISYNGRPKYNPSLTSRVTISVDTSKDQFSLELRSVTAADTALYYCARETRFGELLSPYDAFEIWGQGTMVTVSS VL: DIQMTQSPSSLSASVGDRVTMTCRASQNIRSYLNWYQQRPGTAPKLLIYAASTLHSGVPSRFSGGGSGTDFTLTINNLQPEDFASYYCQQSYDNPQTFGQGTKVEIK	12%
TCN-543 (5081_G23) (antibody, V domains shown) VH: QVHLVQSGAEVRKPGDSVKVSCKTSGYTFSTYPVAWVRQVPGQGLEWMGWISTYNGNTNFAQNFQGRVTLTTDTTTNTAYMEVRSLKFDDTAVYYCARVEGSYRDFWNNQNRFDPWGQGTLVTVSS VL: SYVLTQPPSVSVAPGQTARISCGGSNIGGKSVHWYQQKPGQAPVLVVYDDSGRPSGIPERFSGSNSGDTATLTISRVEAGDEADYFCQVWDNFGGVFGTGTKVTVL	100%

Required: % Neutralization, one value per binder below.
1. TCN-537 (3194_D21) (antibody, V domains shown) VH: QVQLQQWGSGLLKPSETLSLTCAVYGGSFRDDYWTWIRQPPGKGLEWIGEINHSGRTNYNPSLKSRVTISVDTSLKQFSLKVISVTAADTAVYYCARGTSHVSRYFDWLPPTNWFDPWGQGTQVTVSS VL: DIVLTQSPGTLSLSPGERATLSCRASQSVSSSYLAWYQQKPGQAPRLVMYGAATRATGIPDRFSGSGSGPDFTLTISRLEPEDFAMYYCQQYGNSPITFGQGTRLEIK
2. TCN-535 (5246_P19) (antibody, V domains shown) VH: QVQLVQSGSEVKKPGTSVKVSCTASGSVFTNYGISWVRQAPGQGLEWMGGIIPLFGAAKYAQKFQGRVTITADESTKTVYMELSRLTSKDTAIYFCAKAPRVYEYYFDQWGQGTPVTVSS VL: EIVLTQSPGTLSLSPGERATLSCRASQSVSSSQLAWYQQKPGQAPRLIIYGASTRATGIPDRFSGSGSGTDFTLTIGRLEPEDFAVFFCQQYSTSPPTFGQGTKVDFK
3. TCN-553 (5261_C18) (antibody, V domains shown) VH: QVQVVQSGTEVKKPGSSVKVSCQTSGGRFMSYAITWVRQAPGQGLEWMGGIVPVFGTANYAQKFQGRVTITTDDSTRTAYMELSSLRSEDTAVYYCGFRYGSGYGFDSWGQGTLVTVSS VL: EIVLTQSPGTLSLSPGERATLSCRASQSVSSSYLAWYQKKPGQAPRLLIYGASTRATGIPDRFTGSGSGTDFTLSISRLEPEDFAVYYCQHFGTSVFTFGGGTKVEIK

89%
82%
87%

Attribution: patent US20120207760A1
